# System: MDR1 (P-gp)
# METHOD: Permeability from basolateral to apical side in dog MDCK cells expressing human MDR-1 gene
# Assay type: ADME, cell-based, Canis lupus familiaris
# TEST_CONDITIONS: read-out: permeability
This listing pairs compounds with measured Papp B→A.

Solved entries:
• CC(C)c1cccc(CN[C@H]2CS(=O)(=O)C[C@@H](Cc3ccc(O)cc3)[C@@H]2O)c1 (racemic) = 370 nm/s
• CC(C)(C)c1cccc(CN[C@H]2CS(=O)(=O)C[C@@H](Cc3ccc(O)c(Br)c3)[C@@H]2O)c1 = 160 nm/s
• COc1ccc(C[C@@H]2CS(=O)(=O)C[C@H](NCc3cccc(C(C)C)c3)[C@H]2O)cc1Br = 97 nm/s

# input for lookup
input: Recorded Papp B→A for `CCCCc1cc(C[C@@H]2CS(=O)(=O)C[C@H](NCc3cccc(C(C)C)c3)[C@H]2O)ccc1O` with MDR1 (P-gp), please?
output: 42 nm/s

* * *

This listing pairs molecules with measured concentration.
# Test system: Brain
# METHOD: Drug level in brain of mouse at 2 umol/kg, iv
# Assay type: ADME, organism-based
# TEST_CONDITIONS: in vivo, read-out: Drug uptake
All answers are understood in nM, so give the number only.

- CC(C)c1cccc(CN[C@H]2CS(=O)(=O)C[C@@H](Cc3ccc(O)c(Br)c3)[C@@H]2O)c1: 210

# input for lookup
input: Item `CC(C)(C)c1cccc(CN[C@H]2CS(=O)(=O)C[C@@H](Cc3ccc(O)c(Br)c3)[C@@H]2O)c1` has what recorded concentration?
output: 180

* * *

# MEASUREMENT_TARGET: Beta-secretase 1 (Homo sapiens, UniProt P56817)
# Sequence (P56817 whole entry): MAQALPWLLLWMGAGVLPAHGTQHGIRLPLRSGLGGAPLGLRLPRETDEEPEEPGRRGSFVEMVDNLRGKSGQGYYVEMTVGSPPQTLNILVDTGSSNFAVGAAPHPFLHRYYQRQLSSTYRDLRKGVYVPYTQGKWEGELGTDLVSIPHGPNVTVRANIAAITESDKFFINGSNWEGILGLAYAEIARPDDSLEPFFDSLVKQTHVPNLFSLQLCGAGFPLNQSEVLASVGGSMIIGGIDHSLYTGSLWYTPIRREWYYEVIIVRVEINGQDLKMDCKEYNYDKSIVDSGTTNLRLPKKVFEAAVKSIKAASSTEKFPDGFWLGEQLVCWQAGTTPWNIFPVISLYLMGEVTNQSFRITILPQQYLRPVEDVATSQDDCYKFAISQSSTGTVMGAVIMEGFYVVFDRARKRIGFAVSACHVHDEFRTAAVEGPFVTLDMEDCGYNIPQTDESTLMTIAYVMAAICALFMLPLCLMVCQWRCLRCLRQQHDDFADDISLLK
# METHOD: Inhibition of human BACE-1
PROPERTY_LABEL: log10 IC50 (log10 of the value in nM)
Kindly note that the scale is log10 and the underlying IC50 is in nM.

- CC(C)c1cccc(CN[C@H]2CS(=O)(=O)C[C@@H](Cc3ccc(O)cc3)[C@@H]2O)c1 (racemic): 3.26
- CCc1cc(C[C@@H]2CS(=O)(=O)C[C@H](NCc3cccc(C(C)C)c3)[C@H]2O)ccc1O: 2.57
- COc1ccc(C[C@@H]2CS(=O)(=O)C[C@H](NCc3cccc(C(C)C)c3)[C@H]2O)cc1Br: 3.45
- CCCc1cc(C[C@@H]2CS(=O)(=O)C[C@H](NCc3cccc(C(C)C)c3)[C@H]2O)ccc1O: 2.28

input: Recorded log10 IC50 for `CC(C)c1cccc(CN[C@H]2CS(=O)(=O)C[C@@H](Cc3ccc(O)c(Br)c3)[C@@H]2O)c1` with Beta-secretase 1 (Homo sapiens, UniProt P56817), please?
output: 2.48

* * *

# System: MDR1 (P-gp)
# METHOD: Permeability from basolateral to apical side in dog MDCK cells expressing human MDR-1 gene
# Type: ADME, cell-based, Canis lupus familiaris
# TEST_CONDITIONS: read-out: permeability
PROPERTY_LABEL: Papp B→A (×10⁻⁶ cm/s)
All answers are understood in ×10⁻⁶ cm/s, so give the number only.

• CC(C)c1cccc(CN[C@H]2CS(=O)(=O)C[C@@H](Cc3ccc(O)c(CO)c3)[C@@H]2O)c1 = 30
• CNC(=O)Oc1ccc(C[C@@H]2CS(=O)(=O)C[C@H](NCc3cccc(C(C)C)c3)[C@H]2O)cc1Br = 88
• CCCN1C(=O)OC[C@@H]1Cc1cc(C[C@@H]2CS(=O)(=O)C[C@H](NCc3cccc(C(C)C)c3)[C@H]2O)ccc1O = 26
• CCCc1cc(C[C@@H]2CS(=O)(=O)C[C@H](NCc3cccc(C(C)C)c3)[C@H]2O)ccc1O = 18

# input for lookup
input: Item `CCc1cc(C[C@@H]2CS(=O)(=O)C[C@H](NCc3cccc(C(C)C)c3)[C@H]2O)ccc1O` has what recorded Papp B→A?
output: 45
